System: K562
Assay: Cytotoxicity against human K562 cells assessed as reduction in viable cells after 48 hrs by MTT assay
Format: functional, cell-based
Conditions: K562, 48 h
Reported metric: log10(IC50) (log10 of the value in µM)

Compound	log10(IC50)
O=C(NCc1ccccc1)[C@@H](Cc1ccc2c(c1)OCO2)[C@@H](CO)Cc1ccc2c(c1)OCO2	0.93
COc1cc([C@@H]2c3cc4c(cc3[C@@H](O[C@@H]3O[C@@H]5CO[C@@H](C)O[C@H]5[C@H](O)[C@H]3O)[C@H]3COC(=O)[C@H]23)OCO4)cc(OC)c1O [ETOPOSIDE]	0.64
O=C(NCCO)[C@@H](Cc1ccc2c(c1)OCO2)[C@@H](CO)Cc1ccc2c(c1)OCO2	1.94
O=C(NCc1ccc(C(F)(F)F)cc1)[C@@H](Cc1ccc2c(c1)OCO2)[C@@H](CO)Cc1ccc2c(c1)OCO2	0.95
O=C(O)CC1OC[C@@H](Cc2ccc3c(c2)OCO3)[C@@H]1Cc1ccc2c(c1)OCO2 (stereo partly specified)	0.90
O=C(NCCc1ccccc1)[C@@H](Cc1ccc2c(c1)OCO2)[C@@H](CO)Cc1ccc2c(c1)OCO2	0.90
CC(C)CCNC(=O)[C@@H](Cc1ccc2c(c1)OCO2)[C@@H](CO)Cc1ccc2c(c1)OCO2	1.69
O=C1[C@@H](Cc2ccc3c(c2)OCO3)[C@H](Cc2ccc3c(c2)OCO3)C(=O)N1Cc1ccccc1	0.95
O=C1OC[C@@H](Cc2ccc3c(c2)OCO3)[C@@H]1Cc1ccc2c(c1)OCO2	0.96
OC[C@@H](Cc1ccc2c(c1)OCO2)[C@@H](CO)Cc1ccc2c(c1)OCO2	1.48
OC1OC[C@@H](Cc2ccc3c(c2)OCO3)[C@@H]1Cc1ccc2c(c1)OCO2 (stereo partly specified)	0.94
O=C(NCc1ccc(F)cc1)[C@@H](Cc1ccc2c(c1)OCO2)[C@@H](CO)Cc1ccc2c(c1)OCO2	0.89
COc1cccc(CNC(=O)[C@@H](Cc2ccc3c(c2)OCO3)[C@@H](CO)Cc2ccc3c(c2)OCO3)c1	0.90

---

Test system: A549
Assay: Cytotoxicity against human A549 cells assessed as reduction in viable cells after 48 hrs by MTT assay
Assay type: functional, cell-based
Conditions: A549, 48 h
Reported metric: IC50 (µM)

> print(dat)
                                   compound  unit.of.measure  recorded.result
1  COc1ccc(CNC(=O)[C@@H](Cc2ccc3c(c2)OCO3)[C@@H](CO)Cc2ccc3c(c2)OCO3)cc1               µM             6.61
2  CC(C)CCNC(=O)[C@@H](Cc1ccc2c(c1)OCO2)[C@@H](CO)Cc1ccc2c(c1)OCO2               µM             8.75
3  COc1ccc(CN2C(=O)[C@@H](Cc3ccc4c(c3)OCO4)[C@H](Cc3ccc4c(c3)OCO4)C2=O)cc1               µM             45.5
4  O=C(O)CC1OC[C@@H](Cc2ccc3c(c2)OCO3)[C@@H]1Cc1ccc2c(c1)OCO2 (some centres undefined)               µM             52.9

---

System: HT-29
Experiment: Cytotoxicity against human HT-29 cells assessed as reduction in viable cells after 48 hrs by MTT assay
Format: functional, cell-based
Conditions: HT-29, 48 h
pIC50: −log10 of the molar value.
Reported metric: pIC50

> print(dat)
                              smiles.record  reported.metric  comparison.symbol  recorded.result
1  COc1ccc(CNC(=O)[C@@H](Cc2ccc3c(c2)OCO3)[C@@H](CO)Cc2ccc3c(c2)OCO3)cc1            pIC50                  =             4.29
2  CC(C)CCN1C(=O)[C@@H](Cc2ccc3c(c2)OCO3)[C@H](Cc2ccc3c(c2)OCO3)C1=O            pIC50                  =             4.18
3  O=C(NCc1ccc(C(F)(F)F)cc1)[C@@H](Cc1ccc2c(c1)OCO2)[C@@H](CO)Cc1ccc2c(c1)OCO2            pIC50                  =             4.19
4  OC[C@@H](Cc1ccc2c(c1)OCO2)[C@@H](CO)Cc1ccc2c(c1)OCO2            pIC50                  <             4.00
5  O=C1OC[C@@H](Cc2ccc3c(c2)OCO3)[C@@H]1Cc1ccc2c(c1)OCO2            pIC50                  =             4.45
6  O=C(NCc1ccccc1)[C@@H](Cc1ccc2c(c1)OCO2)[C@@H](CO)Cc1ccc2c(c1)OCO2            pIC50                  =             4.17
7  O=C(NCCc1ccccc1)[C@@H](Cc1ccc2c(c1)OCO2)[C@@H](CO)Cc1ccc2c(c1)OCO2            pIC50                  =             4.23
8  COc1cccc(CNC(=O)[C@@H](Cc2ccc3c(c2)OCO3)[C@@H](CO)Cc2ccc3c(c2)OCO3)c1            pIC50                  =             4.59
